For each entry below, report its GI50 value.
Test system: SW-620
Experiment: NCI tumour cell line growth inhibition, 48 h
Calls of active or inactive are those of the source. Rule as the data show it: active = GI50 up to about 1.1 µM and inactive = higher.

Would you please look over these solved cases?
CCCNC(=S)N/C=C1/C(=O)C=C(C)OC1=O    > 100 µM (inactive)
CC(=O)c1c(C)[n+]([O-])c2cc(C)c(C)cc2[n+]1[O-]    > 100 µM (inactive)
OC(c1cccs1)c1cc2ccccc2s1 (stereo unspecified)    > 10 µM (inactive)

Batch: GI50 for all items listed.
1. COc1cc(/C=C/C(=N\NC(=S)NN)c2sc(NNC(C)=O)nc2C)ccc1O
2. CC[C@@H]1NC(C(=O)OC)Cc2c1[nH]c1ccccc21 (stereo partly specified)
3. C=C(CN(CC)CC)C1(c2ccccc2)CC2(CCCC2)C(=O)O1 (stereo unspecified)
4. COC(=O)C(=O)C(/C(=N/N)C(=O)Nc1ccccc1C(N)=O)c1nc2ccc([N+](=O)[O-])cc2nc1O (stereo unspecified)
5. COC(=O)C12OCC34C(CC5C(C)=C(O)C(=O)CC5(C)C3C(O)C1O)OC(=O)C(OC(=O)C=C(C)C)C24 (stereo unspecified)
6. CC(=O)OC(C)(C)/C=C/C(=O)[C@](C)(O)[C@H]1[C@H](O)C[C@@]2(C)[C@@H]3CC=C4[C@@H](C[C@H](O)[C@H](O)C4(C)C)[C@]3(C)C(=O)C[C@]12C

Result:
> 100 µM (inactive)
> 100 µM (inactive)
> 100 µM (inactive)
> 100 µM (inactive)
> 500 µM (inactive)
0.274 µM (active)

Batch: GI50 for all items listed.
1. CC(C)C1=C(Cc2ccccc2)C(=O)O/C1=C\c1cc(Cl)c(O)c(Cl)c1
2. COc1cc(/C=C2/SC(c3ccccc3)N(c3cccc([N+](=O)[O-])c3)C2=O)cc(OC)c1OC (stereo unspecified)
3. Cc1c2c(C(N)=O)nccc2c(C)c2c1c1ccccc1n2Cc1ccccc1

Result:
1: 23.1 µM (inactive); 2: 74.5 µM (inactive); 3: 17.2 µM (inactive)

Batch: GI50 for all items listed.
1. C=CCC1(C#N)C(=S)NC2=C(C(=O)CC(C)(C)C2)C1c1ccccc1 (stereo unspecified)
2. Cn1c(-c2cccs2)cc(-c2cccs2)c1-c1cccs1
3. CC(=O)Nc1ccc2nc(-c3cccc(F)c3)cc(O)c2c1
4. CN(CCO)/N=N/c1n[nH]cc1C(N)=O
5. O=C(c1cccs1)N1CCc2ccccc2C1
6. COc1ccc2c(c1)CN1CCc3c(cc(OC)c(OC)c3OC)C1C2 (stereo unspecified)

Result:
1. > 100 µM (inactive)
2. > 100 µM (inactive)
3. 13.3 µM (inactive)
4. > 100 µM (inactive)
5. > 100 µM (inactive)
6. > 100 µM (inactive)

Batch: GI50 for all items listed.
1. O=C(NCc1ccccc1)C1C(=O)C(=O)N(Cc2ccccc2)C1=O (stereo unspecified)
2. CCCCCCCCC#CCCCCCCC(F)C(=O)O (stereo unspecified)
3. CN1CCN(C2=CC(=O)c3c(O)ccc(O)c3C2=O)CC1
4. Nc1ccc(S(=O)(=O)Nc2nc3ccccc3nc2N2CCCCC2)cc1
5. CCOC(=O)c1nn2c(nc1=O)sc1ccc3ccccc3c12
6. CC(=O)N1c2ccccc2C(C)(C)OC1C(Cl)(Cl)Cl (stereo unspecified)
7. CCOC(=O)NC(OCCN(C)C)(C(F)(F)F)C(F)(F)F

Result:
1. > 100 µM (inactive)
2. > 100 µM (inactive)
3. 0.618 µM (active)
4. 59 µM (inactive)
5. > 100 µM (inactive)
6. 34 µM (inactive)
7. > 100 µM (inactive)
